// provenance: IntAct's records for PubMed 21460798

B1: APC/C activator protein CDH1 (Saccharomyces cerevisiae), P53197 (parent)
chain: MSTNLNPFMNNTPSSSPLKGSESKRVSKRPISSSSSASLLSSPSRRSRPSTVYGDRYIPSRTDIDFNSIVSISSMASVPALNPSSTEDQVEYQKERQAHETYNTLLKNELFGEMLSKDTVGSESSIDRIKNTRPSTRGNVHAENTTRHGYELERVSTPPPEAAGLEEFSPHSTPVTPRRLFTSQQDEITRPSSNSVRGASLLTYQQRKGRRLSAASLLQSQFFDSMSPVRPDSKQLLLSPGKQFRQIAKVPYRVLDAPSLADDFYYSLIDWSSTDVLAVALGKSIFLTDNNTGDVVHLCDTENEYTSLSWIGAGSHLAVGQANGLVEIYDVMKRKCIRTLSGHIDRVACLSWNNHVLTSGSRDHRILHRDVRMPDPFFETIESHTQEVCGLKWNVADNKLASGGNDNVVHVYEGTSKSPILTFDEHKAAVKAMAWSPHKRGVLATGGGTADRRLKIWNVNTSIKMSDIDSGSQICNMVWSKNTNELVTSHGYSKYNLTLWDCNSMDPIAILKGHSFRVLHLTLSNDGTTVVSGAGDETLRYWKLFDKPKAKVQPNSLIFDAFNQIR
partner: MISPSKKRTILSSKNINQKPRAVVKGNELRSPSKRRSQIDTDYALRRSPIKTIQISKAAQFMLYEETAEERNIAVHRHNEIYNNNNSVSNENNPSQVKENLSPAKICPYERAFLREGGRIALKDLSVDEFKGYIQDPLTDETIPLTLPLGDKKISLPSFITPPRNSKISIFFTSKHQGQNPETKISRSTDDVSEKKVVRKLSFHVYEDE

Variants of: B1
Conditions: with acm1_yeast ACM1, Q08981
attribute_measured: effect of a mutation on the interaction

INSERT INTO assay_data (sequence_change, attribute_measured, experimental_value) VALUES
  ('P258A', 'effect of a mutation on the interaction', 'disrupting interaction'),
  ('G535A', 'effect of a mutation on the interaction', 'disrupting interaction'),
  ('L255V', 'effect of a mutation on the interaction', 'disrupting interaction');
